Target: T1, mature recombinant human GDF-15 with an N-terminal Flag and His tag, biotinylated (human, UniProt Q99988 197-308, chemically biotinylated with EZ link Sulfo-NHS-LC-Biotin, sites not stated)
T1 construct: not shown: N-terminal Flag and His tags
T1 sequence: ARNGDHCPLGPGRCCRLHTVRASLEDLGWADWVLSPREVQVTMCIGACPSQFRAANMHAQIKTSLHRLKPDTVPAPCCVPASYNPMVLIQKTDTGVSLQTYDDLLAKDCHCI
Test: SPR Biacore 8K, 25 C, biotinylated GDF-15 on streptavidin C1 chip, Fab as analyte
measured attribute: pKd
Just the number, please; pKd means minus log10 of the concentration in mol/L.

q: Return pKd for the following binder: AB1170244 Fab (Fab, V domains shown, Fab of the humanized antibody, expressed as in Spooner et al. 2015) VH: EVQLVESGGGLVKPGGSLRLSCAASGFTFSSYAMSWVRQAPGKGLEWVAYISSGGDNIYYADTVKGRFTISRDNSKNTLYLQMNSLKTEDTAVYYCTRALVENAYFDYWGQGTTVTVSS VL: DSVLTQSPDSLAVSLGERATINCRASKSVSTSTYSYMHWYQQKPGQPPKLLIKYASYLESGVPDRFSGSGSGTDFTLKISRVEAEDVGVYYCQHSREFPWTFGGGTKVEIK
a: 8.63
